Listing: DR/DR LNA of selected molecules
Assay: Probe fluorescence ratio response to linolenic acid relative to ADIFAB2
Format: binding
Conditions: response relative to ADIFAB2
Endpoint label: DR/DR LNA

INSERT INTO measurements (molecule, endpoint_label, data_value) VALUES
  ('49W1, 72A (protein, listed as Rattus norvegicus, PEPTIDE (1)...(131) wild-type rat intestinal fatty acid binding protein) AFDGTWKVDRNENYEKFMEKMGINVVKRKLGAHDNLKLTITQEGNKFTWKESSNFRNIDVVFELGVDFAYSAADGTELTGTWTMEGNKLVGKFKRVDNGKELIAVREISGNELIQTYTYEGVEAKRIFKKE', 'DR/DR LNA', 0.58),
  ('21W, 72A (protein, listed as Rattus norvegicus, PEPTIDE (1)...(131) wild-type rat intestinal fatty acid binding protein) AFDGTWKVDRNENYEKFMEKWGINVVKRKLGAHDNLKLTITQEGNKFTVKESSNFRNIDVVFELGVDFAYSAADGTELTGTWTMEGNKLVGKFKRVDNGKELIAVREISGNELIQTYTYEGVEAKRIFKKE', 'DR/DR LNA', 2.40),
  ('78M1, 72A (protein, listed as Rattus norvegicus, PEPTIDE (1)...(131) wild-type rat intestinal fatty acid binding protein) AFDGTWKVDRNENYEKFMEKMGINVVKRKLGAHDNLKLTITQEGNKFTVKESSNFRNIDVVFELGVDFAYSAADGTEMTGTWTMEGNKLVGKFKRVDNGKELIAVREISGNELIQTYTYEGVEAKRIFKKE', 'DR/DR LNA', 1.50),
  ('55M1, 72A (protein, listed as Rattus norvegicus, PEPTIDE (1)...(131) wild-type rat intestinal fatty acid binding protein) AFDGTWKVDRNENYEKFMEKMGINVVKRKLGAHDNLKLTITQEGNKFTVKESSNMRNIDVVFELGVDFAYSAADGTELTGTWTMEGNKLVGKFKRVDNGKELIAVREISGNELIQTYTYEGVEAKRIFKKE', 'DR/DR LNA', 1.42),
  ('74C, 72A (protein, listed as Rattus norvegicus, PEPTIDE (1)...(131) wild-type rat intestinal fatty acid binding protein) AFDGTWKVDRNENYEKFMEKMGINVVKRKLGAHDNLKLTITQEGNKFTVKESSNFRNIDVVFELGVDFAYSAACGTELTGTWTMEGNKLVGKFKRVDNGKELIAVREISGNELIQTYTYEGVEAKRIFKKE', 'DR/DR LNA', 0.74),
  ('104F, 72A (protein, listed as Rattus norvegicus, PEPTIDE (1)...(131) wild-type rat intestinal fatty acid binding protein) AFDGTWKVDRNENYEKFMEKMGINVVKRKLGAHDNLKLTITQEGNKFTVKESSNFRNIDVVFELGVDFAYSAADGTELTGTWTMEGNKLVGKFKRVDNGKELIFVREISGNELIQTYTYEGVEAKRIFKKE', 'DR/DR LNA', 0.436);
